Each recorded value in this set is attributed to ChEMBL document CHEMBL4028802.

Organism: Homo sapiens
Test: Liver toxicity in human assessed as induction of drug-induced liver injury by measuring verified drug-induced liver injury concern status
Property Measured: DILI_Concern

INSERT INTO results (compound, result) VALUES
  ('COC(=O)C1=C(C)NC(C)=C(C(=O)OC)C1c1ccccc1[N+](=O)[O-]', 'Less-Dili-Concern'),
  ('N=C(N)NC(=O)c1nc(Cl)c(N)nc1N [AMILORIDE]', 'Less-Dili-Concern'),
  ('CC(C)n1c(/C=C/C(O)CC(O)CC(=O)O)c(-c2ccc(F)cc2)c2ccccc21 (stereo not given)', 'Less-Dili-Concern');

* * *

Species: Homo sapiens
Assay: Liver toxicity in human assessed as induction of drug-induced liver injury by measuring verified drug-induced liver injury concern status
Property Measured: DILI_Concern

INSERT INTO assay_data (compound, property_measured, result) VALUES
  ('CCc1ccc(CCOc2ccc(CC3SC(=O)NC3=O)cc2)nc1 (centres undefined)', 'DILI_Concern', 'Less-Dili-Concern'),
  ('COc1ccccc1OCC(O)CN1CCN(CC(=O)Nc2c(C)cccc2C)CC1 (centres undefined)', 'DILI_Concern', 'No-Dili-Concern'),
  ('OCCOCCN1CCN(C(c2ccccc2)c2ccc(Cl)cc2)CC1 (centres undefined) [HYDROXYZINE]', 'DILI_Concern', 'No-Dili-Concern'),
  ('C[C@@H]1O[C@@H]1P(=O)(O)O', 'DILI_Concern', 'Less-Dili-Concern');

Entry O=P(O)(O)C(Sc1ccc(Cl)cc1)P(=O)(O)O : reported DILI_Concern = ?
No-Dili-Concern

Entry C=C[C@H]1C[N@@]2CC[C@H]1C[C@@H]2[C@@H](O)c1ccnc2ccc(OC)cc12 : reported DILI_Concern = ?
Less-Dili-Concern

Entry CN1CC[C@]23c4c5ccc(O)c4O[C@H]2[C@@H](O)C=C[C@H]3[C@H]1C5 : reported DILI_Concern = ?
No-Dili-Concern

* * *

Organism: Homo sapiens
Test: Liver toxicity in human assessed as induction of drug-induced liver injury by measuring severity class index
Recorded DILI_severity_class values for a group of compounds are listed next.
Respond with the number and no other words.

These solved cases illustrate the format of a correct answer.
INSERT INTO assay_data (chemical_string, result) VALUES
  ('CC[N+](CC)(CCNC(=O)C(=O)NCC[N+](CC)(CC)Cc1ccccc1Cl)Cc1ccccc1Cl', 0),
  ('CCOC(=O)[C@H](CCc1ccccc1)N[C@@H](C)C(=O)N1Cc2ccccc2C[C@H]1C(=O)O', 3);

Entry C[C@]12C=CC(=O)C=C1CC[C@@H]1[C@@H]2C(=O)C[C@@]2(C)[C@H]1CC[C@]2(O)C(=O)CO : reported DILI_severity_class = ?
3

Entry NC[C@@H]1O[C@H](O[C@H]2[C@@H](O)[C@H](O[C@@H]3[C@@H](O)[C@H](N)C[C@H](N)[C@H]3O[C@H]3O[C@H](CO)[C@@H](O)[C@H](O)[C@H]3N)O[C@@H]2CO)[C@H](N)[C@@H](O)[C@@H]1O : reported DILI_severity_class = ?
0

Entry CC[C@H]1OC(=O)[C@H](C)[C@@H](O[C@H]2C[C@@](C)(OC)[C@@H](O)[C@H](C)O2)[C@H](C)[C@@H](O[C@@H]2O[C@H](C)C[C@H](N(C)C)[C@H]2O)[C@](C)(O)C[C@@H](C)C(=O)[C@H](C)[C@@H](O)[C@]1(C)O : reported DILI_severity_class = ?
5

Entry CNC(=C[N+](=O)[O-])NCCSCc1ccc(CN(C)C)o1 : reported DILI_severity_class = ?
5

Entry O=C1Nc2ccccc2C1(c1ccc(O)cc1)c1ccc(O)cc1 : reported DILI_severity_class = ?
8

* * *

Species: Homo sapiens
Assay: Liver toxicity in human assessed as induction of drug-induced liver injury by measuring verified drug-induced liver injury concern status
Property Measured: DILI_Concern

INSERT INTO measurements (compound, property_measured, result) VALUES
  ('CC1=C(C/C=C(\C)CCC[C@H](C)CCC[C@H](C)CCCC(C)C)C(=O)c2ccccc2C1=O', 'DILI_Concern', 'No-Dili-Concern'),
  ('O=C(O)c1cc(/N=N/c2ccc(O)c(C(=O)O)c2)ccc1O', 'DILI_Concern', 'Less-Dili-Concern'),
  ('CC1(C)S[C@@H]2[C@H](NC(=O)[C@H](N)c3ccccc3)C(=O)N2[C@H]1C(=O)O', 'DILI_Concern', 'Less-Dili-Concern'),
  ('CC(CCc1ccc(O)cc1)NCCc1ccc(O)c(O)c1 (centres undefined)', 'DILI_Concern', 'No-Dili-Concern');

* * *

Species: Homo sapiens
Experiment: Liver toxicity in human assessed as induction of drug-induced liver injury by measuring severity class index
Recorded DILI_severity_class values for a group of compounds are listed next.
Respond with the number and no other words.

These solved cases illustrate the format of a correct answer.
INSERT INTO measurements (chemical_string, result) VALUES
  ('NC(=O)C1CCN(CCCN2c3ccccc3Sc3ccc(Cl)cc32)CC1', 8),
  ('Cc1onc(-c2ccccc2)c1C(=O)N[C@@H]1C(=O)N2[C@@H]1SC(C)(C)[C@@H]2C(=O)O', 3);

Entry N[C@@H](Cc1cc(I)c(Oc2cc(I)c(O)c(I)c2)c(I)c1)C(=O)O : reported DILI_severity_class = ?
3

Entry Clc1ccc2nsnc2c1NC1=NCCN1 : reported DILI_severity_class = ?
8

Entry Cc1ccc(C(=O)c2cc(O)c(O)c([N+](=O)[O-])c2)cc1 : reported DILI_severity_class = ?
8

Entry C[C@H]1CN(C[C@H](Cc2ccccc2)C(=O)NCC(=O)O)CC[C@@]1(C)c1cccc(O)c1 : reported DILI_severity_class = ?
0

Entry CC(C)(Oc1ccc(C(=O)c2ccc(Cl)cc2)cc1)C(=O)O : reported DILI_severity_class = ?
2

Entry CN(C)C(=O)Oc1ccc[n+](C)c1 : reported DILI_severity_class = ?
0

Entry NCCc1ccc(O)cc1 : reported DILI_severity_class = ?
0

* * *

Recorded DILI_severity_class values for a group of molecules are listed next.
Species: Homo sapiens
Assay: Liver toxicity in human assessed as induction of drug-induced liver injury by measuring severity class index

INSERT INTO results (molecule, property_measured, result) VALUES
  ('Nc1ccc(C(=O)NCC(=O)O)cc1', 'DILI_severity_class', 0),
  ('COc1ccc2c3c1O[C@H]1C[C@@H](O)C=C[C@@]31CCN(C)C2', 'DILI_severity_class', 3),
  ('CCN(CC)C(=O)C1(c2ccccc2)CC1CN (centres undefined)', 'DILI_severity_class', 7);

Moving on to another molecule below.
Entry Clc1ccc2c(c1)C(c1ccccc1)=NCc1nncn1-2 : reported DILI_severity_class = ?
0

* * *

Species: Homo sapiens
Experiment: Liver toxicity in human assessed as induction of drug-induced liver injury by measuring severity class index
Property Measured: DILI_severity_class
Respond with the number and no other words.

These solved cases illustrate the format of a correct answer.
INSERT INTO results (compound, property_measured, result) VALUES
  ('NCCCC(O)(P(=O)(O)O)P(=O)(O)O [ALENDRONIC ACID]', 'DILI_severity_class', 0),
  ('CC(=O)OCC(CCn1cnc2cnc(N)nc21)COC(C)=O [FAMCICLOVIR]', 'DILI_severity_class', 3),
  ('COc1ccc(CC2c3cc(OC)c(OC)cc3CC[N+]2(C)CCC(=O)OCCCCCOC(=O)CC[N+]2(C)CCc3cc(OC)c(OC)cc3C2Cc2ccc(OC)c(OC)c2)cc1OC (centres undefined)', 'DILI_severity_class', 0);

Moving on to another compound below.
Entry CCOc1cc(CC(=O)N[C@@H](CC(C)C)c2ccccc2N2CCCCC2)ccc1C(=O)O [REPAGLINIDE] : reported DILI_severity_class = ?
5

* * *

Species on record: Homo sapiens
Test: Liver toxicity in human assessed as induction of drug-induced liver injury by measuring severity class index
Recorded DILI_severity_class values for a group of compounds are listed next.
Respond with the number and no other words.

These solved cases illustrate the format of a correct answer.
INSERT INTO assay_data (compound, property_measured, result) VALUES
  ('CN(C)CCOC(c1ccccc1)c1ccccc1.Cn1c(=O)c2[nH]c(Cl)nc2n(C)c1=O [DIMENHYDRINATE]', 'DILI_severity_class', 0),
  ('O=C(CCNNC(=O)c1ccncc1)NCc1ccccc1 [NIALAMIDE]', 'DILI_severity_class', 8),
  ('CN1[C@@H]2CC[C@H]1C[C@@H](OC(=O)C(CO)c1ccccc1)C2 (stereo partly drawn)', 'DILI_severity_class', 0);

Entry OCCN1C[C@H](O)[C@@H](O)[C@H](O)[C@H]1CO : reported DILI_severity_class = ?
0

Entry N=C(N)N : reported DILI_severity_class = ?
3

Entry CCN(CC)CC#CCOC(=O)C(O)(c1ccccc1)C1CCCCC1 (stereo not drawn) : reported DILI_severity_class = ?
0

Entry OCCN1CCN(CCCN2c3ccccc3Sc3ccc(C(F)(F)F)cc32)CC1 : reported DILI_severity_class = ?
3

Entry O=C1C(O)=C([C@H]2CC[C@H](c3ccc(Cl)cc3)CC2)C(=O)c2ccccc21 : reported DILI_severity_class = ?
8

Entry NCC1(CC(=O)O)CCCCC1 : reported DILI_severity_class = ?
3

Entry CCc1cc(C(N)=S)ccn1 [ETHIONAMIDE] : reported DILI_severity_class = ?
3

Entry CC(C)Nc1ncccn1 : reported DILI_severity_class = ?
8
